- ASSAY_OVERVIEW: in vivo
- TEST_CONTEXT: rat
PROPERTY: LD50 (mg/kg)
The figure you give is taken to be in mg/kg; do not add the unit.

In [3]: df
Out[3]:
                                   compound  unit_abbreviation  value_measured
0  CC(C(=O)O)c1ccc2c(c1)Cc1cccnc1O2 (centres unmarked)              mg/kg             450
1         Cc1ccc(C(=O)c2ccc(CC(=O)O)n2C)cc1              mg/kg             350
2           Nc1c(CC(=O)O)cccc1C(=O)c1ccccc1              mg/kg             310
3         O=C(O)c1ccccc1Nc1cccc(C(F)(F)F)c1              mg/kg             720
4  CN1C(C(=O)Nc2ccccn2)=C(O)c2ccccc2S1(=O)=O              mg/kg             360
5  O=C(O)C(Cl)c1ccc(C2CCCCC2)c(Cl)c1 (centres unmarked)              mg/kg             430
6  O=C(O)Cc1sc(-c2ccccc2)nc1-c1ccc(Cl)cc1 [Fentiazac, fentiazac, reference compound]              mg/kg             700
7  CC(=O)Oc1ccccc1C(=O)O [Aspirin, acetylsalicylic acid, reference compound]              mg/kg            1500

# query: LD50 of entry CC(C(=O)O)c1ccc(N2Cc3ccccc3C2=O)cc1 (centres unmarked)
700

Repeat with Cc1cc(CC(=O)O)n(C)c1C(=O)c1ccc(Cl)cc1 [Zomepirac, zomepirac]
27

Ok, now C=C(C)CNc1ccc(C(C)C(=O)O)cc1 (centres unmarked)
2400

Thanks! And "Cc1cccc(Nc2ccccc2C(=O)O)c1C" ?
600

Same again, this time with CC(C(=O)O)c1cccc(Oc2ccccc2)c1 (centres unmarked) [Fenoprofen, 2-(3-phenoxyphenyl) propionic acid, reference compound]
800

Lookup "O=C(O)Cc1ccccc1Oc1ccc(Cl)cc1Cl"
2280

Try this compound next: "COc1ccc2c(c1)c(CC(=O)OCC(=O)O)c(C)n2C(=O)c1ccc(Cl)cc1"
24

Another compound to look at: O=C(O)c1cc(-c2ccc(F)cc2F)ccc1O [Diflunisal, 5-(2,4-difluorophenyl) salicylic acid, reference compound]
500

Now try CC(C(=O)O)c1ccc2c(c1)[nH]c1ccc(Cl)cc12 (centres unmarked) .
400

---

- Tested on: human skin tissue
- TEST_CONTEXT: pH 7.4
Entries whose In vitro penetration rate (apparent flux), prodrug compounds is below 4000 μg/cm^2/h take y; entries at or above 4000 μg/cm^2/h take n.

                                   compound  target_or_test_system  assigned_class
0  CC(=O)O.CCN(CC)CCOC(=O)C(C)c1ccc(C(=O)c2ccccc2)s1 (stereo not shown)      human skin tissue               n
1  CC(=O)O.CCN(CC)CCOC(=O)C(C)c1ccc(CC2CCCC2=O)cc1 (stereo not shown)      human skin tissue               y
2  CC(=O)O.CCN(CC)CCOC(=O)C(C)c1ccc2cc(OC)ccc2c1 (stereo not shown)      human skin tissue               y
3  Cc1cnc(NC(=O)C2=C(OC(=O)CCCN(C)C)c3ccccc3S(=O)(=O)N2C)s1.Cl      human skin tissue               y
4  CC(=O)O.CCN(CC)CCOC(=O)C(C)c1ccc2c(c1)CC(=O)c1ccccc1S2 (stereo not shown)      human skin tissue               y

Would you kindly verify if In vitro penetration rate (apparent flux), prodrug compounds of CC(=O)O.CCN(CC)CCOC(=O)C(C)c1ccc(N2Cc3ccccc3C2=O)cc1 (stereo not shown) is strictly less than 4000 μg/cm^2/h?
n

Next compound up: "C=CCOc1ccc(CC(=O)OCCN(CC)CC)cc1Cl.CC(=O)O"
y

Repeat for the following compound: "CC(=O)O.CCN(CC)CCOC(=O)CCC(=O)c1ccc(-c2ccccc2)cc1"
y
